# TARGET_OF_ASSAY: T1, recombinant His-tagged cynomolgus PD-1 (Acro Biosystems) (cynomolgus, UniProt B0LAJ3 25-170)
# T1 construct: His-tagged; also called Cyno PD-1; not shown: His tag (and any linker) of the Acro Biosystems product
# TEST: SPR Carterra LSA;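 note: antibodies or fusion proteins amine-coupled on an HC30M chip, soluble His-tagged human or cynomolgus PD-1 titrated over them, non-regenerative kinetics, constants fitted from titration curves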
Listed here are binders together with their documented kon.
Report the value in M⁻¹ s⁻¹ with no unit label.

BINDER	kon / M⁻¹ s⁻¹
G12-hIgG4 (antibody, V domains shown) VH: DSLVESGGGLVQPGGSLRLSCAASGFTFDISAMSWVRQAPGKGLEWVSTISGSAYSTYYADSVKGRFTISRDNSKSTLYLQMNSLRAEDTAVYYCAREIFSDYWGLGTLVTVSS VL: QSVLTQPPSASGTPGQRVTISCSGSTSNIGRESVYWYQQLPGTAPKLLIYLNSQRPSGVPDRFSGSKSGTSASLAISGLQSEDVADYYCGTWDDSLNGWVFGGGTKLTVLG	86000
OMC.1.D6-hIgG4 (antibody, V domains shown) VH: EVQLLESGGGLVQPGGSLRLSCAASGFTFSDYYMSWVRQAPGKGLEWVSAISSSGGTIFYADSVKGRFIISRDNSKNTLYLQMNSLRAEDTAVYYCAKHKWNDVYYDAMDVWGQGTTVTVSS VL: QSVLTQPPSASGTPGQRVTISCSGSNSNIGRNLVNWYQQLPGTAPKLLIYTVDQRPSGVPDRFSGSKSGTSASLAISGLASEDEADYYCAAWDSSLNSWVFGGGTKLTVLG	58000
A2-hIgG4 (antibody, V domains shown) VH: DVQLVESGGGLVQPGGSLRLSCAASGFTFDISAMSWVRQAPGKGLEWVSTISGSAYSTYYADSVKGRFTISRDNSKSTLYLQMNSLRAEDTAVYYCAREIFSDYWGLGTLVTVSS VL: QSVLTQPPSASGTPGQRVTISCSGSTSNIGRESVYWYQQLPGTAPKLLIYSNVQRPSGAPNRFSGSKSGTSASLAISGLQSEDEADYYCGTWDDSLNGWVFGGGTKLTVLG	68000

## Input Please give the documented kon of OMC476pH10-hIgG4 (antibody, V domains shown) VH: DVQLVESGGGVVRPGGSLRLSCAASGFTFSIYAVSWVRQAPGEGLEWVSHISASGGSTYYADSVKGRFAISRDNSKNTLYLQMNSLRAEDTAVYYCTTNLGSDYWGLGTLVTVSS VL: QSVLTQPPSASGTPGQRVTISCSGSYSDIGTNYVYWYQQLPGTAPKLLIFATDRRPSGVPDRFSGSKSGTSASLAISGLQSEDEADYYCGTWDDSLNVWVFGGGTKLTVLG
## Output 120000
